experiment.description: Volume of distribution in Sprague-Dawley rat at 1 mg/kg, iv
Assay type: ADME, organism-based
Parameters: dose 1 mg/kg, route intravenous
test.settings: in vivo
quantity.measured: Vd (L/kg)
Please state the figure in L/kg; there is no need to write the unit.

Field Vd (entry CNCCC(c1ccccc1)c1ccc(O)c2ccc(OCCN3CCCC3)cc12 (stereo unspecified) ) reads 8.2

---

experiment.description: Bioavailability in Sprague-Dawley rat at 1 mg/kg, ip and iv
Assay type: ADME, organism-based
test.settings: in vivo
quantity.measured: bioavailability (%)
Quick reminder: number only, in %, skip the unit.

Lookup result for CNCCC(c1ccccc1)c1ccc(O)c2ccc(OCCN3CCCC3)cc12 (stereo unspecified) ; measured bioavailability: 43

---

Reported Ki values for a set of compounds
system.tested: Histamine H3 receptor (Rattus norvegicus, UniProt Q9QYN8)
Sequence (Q9QYN8 whole entry): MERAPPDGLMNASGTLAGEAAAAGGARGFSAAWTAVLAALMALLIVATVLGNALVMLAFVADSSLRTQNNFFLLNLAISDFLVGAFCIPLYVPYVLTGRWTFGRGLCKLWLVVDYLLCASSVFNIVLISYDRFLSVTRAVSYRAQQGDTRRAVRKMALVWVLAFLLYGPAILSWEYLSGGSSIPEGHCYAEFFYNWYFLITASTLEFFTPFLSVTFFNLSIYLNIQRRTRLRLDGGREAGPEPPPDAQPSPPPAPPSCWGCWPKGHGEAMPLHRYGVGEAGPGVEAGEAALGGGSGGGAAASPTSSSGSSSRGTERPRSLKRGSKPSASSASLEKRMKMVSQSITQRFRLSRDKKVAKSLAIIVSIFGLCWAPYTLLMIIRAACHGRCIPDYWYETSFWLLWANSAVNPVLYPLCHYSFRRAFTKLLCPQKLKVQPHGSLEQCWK
Return type: number; implicit unit nM.

In plain terms, CNCCC(Oc1cccc2cc(OCCN3CCCC3)ccc12)c1ccccc1 (configuration not stated) has a documented Ki of 48

Next up:
The value of Ki measured for the compound CNCCC(c1ccccc1)c1ccc(OCCN2CCCC2)cc1 (configuration not stated) turned out to be 5.2

---

experiment.description: Cmax in Sprague-Dawley rat at 1 mg/kg, ip
Assay type: ADME, organism-based
Parameters: dose 1 mg/kg, route intraperitoneal
test.settings: in vivo
quantity.measured: Cmax (ng/mL)
Field format: number, assumed ng/mL, no unit text.

Cmax for CNCCC(c1ccccc1)c1ccc(O)c2ccc(OCCN3CCCC3)cc12 (stereo unspecified) is 210

---

experiment.description: Tmax in Sprague-Dawley rat at 1 mg/kg, ip
Format: ADME, organism-based
Set-up: dose 1 mg/kg, route intraperitoneal
test.settings: in vivo
quantity.measured: Tmax (min)
Provide only the numeric value, understood in min.

Lab note: measured Tmax of CNCCC(c1ccccc1)c1ccc(O)c2ccc(OCCN3CCCC3)cc12 (stereo unspecified) was 15

---

Parameter pKi: see the listing below.
system.tested: Transporter (Rattus norvegicus)
Sequence (Q63380 whole entry): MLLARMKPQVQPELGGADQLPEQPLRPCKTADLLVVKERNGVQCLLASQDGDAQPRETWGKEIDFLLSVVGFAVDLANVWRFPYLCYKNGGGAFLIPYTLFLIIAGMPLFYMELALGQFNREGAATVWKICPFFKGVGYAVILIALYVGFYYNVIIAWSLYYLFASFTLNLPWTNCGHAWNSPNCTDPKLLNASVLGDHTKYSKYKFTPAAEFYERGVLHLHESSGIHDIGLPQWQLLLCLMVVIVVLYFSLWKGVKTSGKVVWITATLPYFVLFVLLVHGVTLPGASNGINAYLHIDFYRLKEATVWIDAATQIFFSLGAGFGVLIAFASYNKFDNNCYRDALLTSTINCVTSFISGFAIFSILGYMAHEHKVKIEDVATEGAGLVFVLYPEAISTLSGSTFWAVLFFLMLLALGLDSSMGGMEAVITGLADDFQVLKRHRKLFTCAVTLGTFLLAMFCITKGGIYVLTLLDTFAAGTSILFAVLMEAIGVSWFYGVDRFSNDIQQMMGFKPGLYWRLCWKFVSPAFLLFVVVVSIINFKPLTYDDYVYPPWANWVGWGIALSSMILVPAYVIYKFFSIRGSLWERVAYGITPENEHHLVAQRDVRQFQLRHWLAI
Scale explanation: pKi corresponds to minus log10 of a concentration expressed in moles per litre.

Field pKi (system: Transporter (Rattus norvegicus)) for entry "CNCCN(c1ccccc1)c1ccc(OCCN2CCCC2)cc1" = 7.05

Readout pKi for "CNCCCN(c1ccccc1)c1ccc(OCCN2CCCC2)cc1" , test system Transporter (Rattus norvegicus), was 6.96

With Transporter (Rattus norvegicus) as the test system, CNCCC(Oc1cccc2cc(OCCN3CCCC3)ccc12)c1ccccc1 (centres undefined) showed pKi of 6.64

Hey, Transporter (Rattus norvegicus) data for CNCCC(c1ccccc1)c1ccc(OCCN2CCCC2)cc1 (centres undefined) : pKi came out at 8.37

---

experiment.description: Plasma protein binding in Sprague-Dawley rat at 1 mg/kg, iv
Type: ADME, organism-based
Design: dose 1 mg/kg, route intravenous
test.settings: read-out: PPB (converted)
quantity.measured: fraction unbound

What the record says about CNCCC(c1ccccc1)c1ccc(O)c2ccc(OCCN3CCCC3)cc12 (stereo unspecified) : fraction unbound is 0.33

---

experiment.description: Clearance in Sprague-Dawley rat at 1 mg/kg, iv
Format: ADME, organism-based
Parameters: dose 1 mg/kg, route intravenous
test.settings: in vivo
quantity.measured: clearance (mL/min/kg)
The figure you give is taken to be in mL/min/kg; do not add the unit.

What the record says about CNCCC(c1ccccc1)c1ccc(O)c2ccc(OCCN3CCCC3)cc12 (stereo unspecified) : clearance is 7.67
